Documented IC50 at 24 h across a set of molecules
protocol-text: Cytotoxicity against human THP1-Dual cells assessed as inhibition of cell growth measured after 24 hrs by CCK-8 method
Type: toxicity, cell-based
property-name: IC50 at 24 h

> print(dat)
                      smiles.representation  property.name     val
1  Cc1nc2cnc3ccc(-c4cc(Cl)c(O)c(Cl)c4)cc3c2n1[C@@H]1CCCN(C)C1   IC50 at 24 h    2 µM
2  Cc1nc2cnc3ccc(-c4cc(Cl)c(O)c(Cl)c4)cc3c2n1C1CCN(C)CC1   IC50 at 24 h  4.3 µM

----------
experimental-system: Tyrosine-protein kinase JAK2 (Homo sapiens, UniProt O60674)
Sequence (O60674 whole entry): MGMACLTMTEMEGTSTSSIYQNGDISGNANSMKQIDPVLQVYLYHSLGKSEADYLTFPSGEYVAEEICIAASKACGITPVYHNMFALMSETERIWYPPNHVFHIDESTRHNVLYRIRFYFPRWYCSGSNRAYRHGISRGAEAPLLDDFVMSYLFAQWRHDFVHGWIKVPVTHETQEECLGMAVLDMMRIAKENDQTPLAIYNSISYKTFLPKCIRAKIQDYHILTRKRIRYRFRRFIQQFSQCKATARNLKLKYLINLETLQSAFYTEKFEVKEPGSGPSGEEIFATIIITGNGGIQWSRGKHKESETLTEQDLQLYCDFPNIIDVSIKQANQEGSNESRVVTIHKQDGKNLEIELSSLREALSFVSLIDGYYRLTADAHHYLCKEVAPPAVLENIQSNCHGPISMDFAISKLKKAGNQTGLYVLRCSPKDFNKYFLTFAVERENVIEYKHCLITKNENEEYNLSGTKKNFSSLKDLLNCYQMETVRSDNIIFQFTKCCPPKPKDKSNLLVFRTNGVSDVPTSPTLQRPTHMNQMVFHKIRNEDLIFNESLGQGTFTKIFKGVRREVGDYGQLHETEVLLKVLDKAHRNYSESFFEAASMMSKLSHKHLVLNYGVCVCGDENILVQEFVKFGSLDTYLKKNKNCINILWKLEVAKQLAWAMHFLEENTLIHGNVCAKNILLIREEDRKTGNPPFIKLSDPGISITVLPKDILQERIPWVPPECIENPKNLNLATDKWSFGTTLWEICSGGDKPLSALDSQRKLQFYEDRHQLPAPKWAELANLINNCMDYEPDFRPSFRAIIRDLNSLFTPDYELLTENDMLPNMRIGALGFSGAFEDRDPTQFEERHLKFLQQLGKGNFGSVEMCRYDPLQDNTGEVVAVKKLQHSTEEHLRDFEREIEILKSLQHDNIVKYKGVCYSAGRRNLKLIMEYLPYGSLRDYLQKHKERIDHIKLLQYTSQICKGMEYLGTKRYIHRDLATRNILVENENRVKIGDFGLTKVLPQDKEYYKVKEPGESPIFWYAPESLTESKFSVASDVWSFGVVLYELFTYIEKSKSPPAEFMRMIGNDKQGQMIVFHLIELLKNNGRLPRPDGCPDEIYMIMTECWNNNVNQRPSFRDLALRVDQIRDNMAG
pIC50: −log10 of the molar value.
property-name: pIC50

> print(dat)
                      smiles.representation  property.name   val
1  Cc1nc2cnc3ccc(-c4cc(Cl)c(O)c(Cl)c4)cc3c2n1[C@@H]1CCCN(C)C1          pIC50  7.87
2  Cc1nc2cnc3ccc(-c4cc(Cl)c(O)c(Cl)c4)cc3c2n1C1CCOCC1          pIC50  7.65
3  Cc1nc2cnc3ccc(-c4cc(F)c(O)c(Cl)c4)cc3c2n1C1CCN(C)CC1          pIC50  6.87

----------
Documented IC50 across a set of compounds
experimental-system: Tyrosine-protein kinase JAK1 (Homo sapiens, UniProt P23458)
Sequence (P23458 whole entry): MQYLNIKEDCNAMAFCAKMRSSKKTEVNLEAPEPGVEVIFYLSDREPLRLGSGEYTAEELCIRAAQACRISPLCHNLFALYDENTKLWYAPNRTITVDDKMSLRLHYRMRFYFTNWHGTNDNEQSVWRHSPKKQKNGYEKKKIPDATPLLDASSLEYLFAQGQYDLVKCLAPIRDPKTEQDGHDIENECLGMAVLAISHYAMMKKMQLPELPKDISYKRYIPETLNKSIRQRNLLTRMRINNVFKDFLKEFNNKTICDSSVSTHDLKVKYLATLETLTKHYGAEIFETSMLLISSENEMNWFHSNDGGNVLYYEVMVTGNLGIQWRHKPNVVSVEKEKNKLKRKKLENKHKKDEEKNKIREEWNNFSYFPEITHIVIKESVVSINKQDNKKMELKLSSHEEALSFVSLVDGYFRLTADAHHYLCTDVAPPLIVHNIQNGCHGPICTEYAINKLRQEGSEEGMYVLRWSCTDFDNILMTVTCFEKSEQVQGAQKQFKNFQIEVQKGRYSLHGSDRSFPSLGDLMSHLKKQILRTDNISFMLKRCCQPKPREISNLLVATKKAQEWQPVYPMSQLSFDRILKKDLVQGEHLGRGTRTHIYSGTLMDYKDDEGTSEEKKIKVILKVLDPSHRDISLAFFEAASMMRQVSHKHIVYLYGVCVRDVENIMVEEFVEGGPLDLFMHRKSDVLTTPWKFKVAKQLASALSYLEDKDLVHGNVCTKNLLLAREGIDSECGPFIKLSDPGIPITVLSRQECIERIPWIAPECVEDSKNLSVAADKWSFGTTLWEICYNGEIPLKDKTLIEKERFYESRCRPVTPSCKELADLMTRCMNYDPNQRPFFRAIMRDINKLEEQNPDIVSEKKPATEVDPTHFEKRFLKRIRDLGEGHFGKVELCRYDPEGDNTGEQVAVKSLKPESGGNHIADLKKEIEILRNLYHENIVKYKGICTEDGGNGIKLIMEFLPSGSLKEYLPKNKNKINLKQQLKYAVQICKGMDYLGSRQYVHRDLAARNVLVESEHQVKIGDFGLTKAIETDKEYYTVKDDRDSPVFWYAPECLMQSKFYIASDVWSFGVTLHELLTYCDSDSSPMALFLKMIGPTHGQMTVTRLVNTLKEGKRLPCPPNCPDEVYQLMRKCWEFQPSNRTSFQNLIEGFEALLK
property-name: IC50

> print(dat)
                                   compound      val
1  Cc1nc2cnc3ccc(-c4cc(Cl)c(O)c(Cl)c4)cc3c2n1C1CCN(CN(C)C)CC1   7.4 nM
2  Cc1nc2cnc3ccc(-c4ccc(O)c(F)c4)cc3c2n1C1CCN(C)CC1    30 nM
3  Cc1nc2cnc3ccc(-c4ccc(O)c(Cl)c4)cc3c2n1C1CCN(C)CC1  42.3 nM
4  Cc1nc2cnc3ccc(-c4cc(Cl)c(O)c(Cl)c4)cc3c2n1C1CCCN(C)C1 (stereo not given)   6.6 nM
5  Cc1nc2cnc3ccc(-c4ccc(O)cc4F)cc3c2n1C1CCN(C)CC1   237 nM

----------
Let's go through some pIC50 measurements on Tyrosine-protein kinase JAK1 (Homo sapiens) together.
pIC50: −log10 of the molar value.
property-name: pIC50

> print(dat)
                       smiles.representation  comparison.symbol   val
 1  Cc1nc2cnc3ccc(-c4cc(Cl)c(O)c(Cl)c4)cc3c2n1[C@H]1CCCN(C)C1                  =  8.26
 2  COc1cc(-c2ccc3ncc4nc(C)n(C5CCN(C)CC5)c4c3c2)ccc1O                  =  6.11
 3  Cc1nc2cnc3ccc(-c4cc(F)c(O)c(Cl)c4)cc3c2n1C1CCN(C)CC1                  =  7.92
 4  Cc1nc2cnc3ccc(-c4cc(Cl)c(O)c(Cl)c4)cc3c2n1[C@H]1CC[C@H](N(C)C)CC1                  =  7.78
 5  Cc1cc(-c2ccc3ncc4nc(C)n(C5CCN(C)CC5)c4c3c2)cc(C)c1O                  =  7.00
 6  Cc1nc2cnc3ccc(-c4cc(Cl)cc(Cl)c4)cc3c2n1C1CCN(C)CC1                  <  6.30
 7  Cc1nc2cnc3ccc(-c4ccc(O)cc4)cc3c2n1C1CCN(C)CC1                  =  6.25
 8  Cc1nc2cnc3ccc(-c4ccc(O)c(C#N)c4)cc3c2n1C1CCN(C)CC1                  =  6.63
 9  Cc1nc2cnc3ccc(-c4ccc(F)c(O)c4)cc3c2n1C1CCN(C)CC1                  <  6.30
10  Cc1nc2cnc3ccc(-c4cc(Cl)c(O)c(Cl)c4)cc3c2n1C1CCOCC1                  =  8.17

The reported numbers originate from ChEMBL document CHEMBL5113519.
